Test system: Symmetric di-Methyl Arginine in Z-138 cells
Test: Z-138 Methylation Assay (In Cell Western for symmetric di-methyl arginine)
Type: cell-based
Details: Homo sapiens, 96 hours incubation, symmetric di-methyl arginine normalised to DNA content, read-out: ICW EC50
outcome_measure: EC50

Below, 3 compounds whose answers are already recorded.
{"compound": "CC(=O)N1CC(Nc2cc(C(=O)NC[C@H](O)CN3CCc4cccnc4C3)ncn2)C1 [Compound 2-13]", "study_system": "Symmetric di-Methyl Arginine in Z-138 cells", "EC50": "101 to 1000 nM"}
{"compound": "O=C(COc1cccc2cccnc12)NCC(O)CN1CCc2cnccc2C1 (stereo not shown) [Compound 2-7]", "study_system": "Symmetric di-Methyl Arginine in Z-138 cells", "EC50": "> 1000 nM"}
{"compound": "CC(=O)N1CCC(Nc2cc(C(=O)NC[C@H](O)CN3CCc4nc(C)[nH]c4C3)ccn2)CC1 [Compound 3-54]", "study_system": "Symmetric di-Methyl Arginine in Z-138 cells", "EC50": "> 1000 nM"}

# context switch: different compound, same EC50
### Prompt Look at this compound and give its reported EC50. CC(=O)N1CCC(Nc2cc(C(=O)NC[C@H](O)CN3CCc4[nH]nc(-c5ccccc5)c4C3)ncn2)CC1 [Compound 3-12]
### Response > 1000 nM

====

Molecular target: PRMT5/MEP50 (Homo sapiens)
Construct: Flag-PRMT5
Sequence (O14744 with tags, fused parts or gaps): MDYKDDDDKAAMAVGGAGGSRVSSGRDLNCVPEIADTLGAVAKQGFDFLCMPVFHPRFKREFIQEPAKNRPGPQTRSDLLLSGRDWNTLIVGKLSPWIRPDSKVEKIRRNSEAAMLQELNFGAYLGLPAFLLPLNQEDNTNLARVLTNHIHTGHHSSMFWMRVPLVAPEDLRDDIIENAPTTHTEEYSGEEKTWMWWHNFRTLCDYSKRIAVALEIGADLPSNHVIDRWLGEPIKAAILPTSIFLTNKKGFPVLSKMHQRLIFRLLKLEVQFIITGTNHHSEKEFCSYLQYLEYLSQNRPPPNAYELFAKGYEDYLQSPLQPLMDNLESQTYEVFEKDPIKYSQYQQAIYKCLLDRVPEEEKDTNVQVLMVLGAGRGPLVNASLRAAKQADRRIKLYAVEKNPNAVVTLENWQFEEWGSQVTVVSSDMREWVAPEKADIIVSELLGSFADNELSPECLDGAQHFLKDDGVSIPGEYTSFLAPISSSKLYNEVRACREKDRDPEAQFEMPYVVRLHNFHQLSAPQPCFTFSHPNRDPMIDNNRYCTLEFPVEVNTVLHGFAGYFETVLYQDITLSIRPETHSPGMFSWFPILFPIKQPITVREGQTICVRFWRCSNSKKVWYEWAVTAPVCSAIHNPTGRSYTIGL
Sequence (Q9BQA1 with tags, fused parts or gaps partner limits assumed): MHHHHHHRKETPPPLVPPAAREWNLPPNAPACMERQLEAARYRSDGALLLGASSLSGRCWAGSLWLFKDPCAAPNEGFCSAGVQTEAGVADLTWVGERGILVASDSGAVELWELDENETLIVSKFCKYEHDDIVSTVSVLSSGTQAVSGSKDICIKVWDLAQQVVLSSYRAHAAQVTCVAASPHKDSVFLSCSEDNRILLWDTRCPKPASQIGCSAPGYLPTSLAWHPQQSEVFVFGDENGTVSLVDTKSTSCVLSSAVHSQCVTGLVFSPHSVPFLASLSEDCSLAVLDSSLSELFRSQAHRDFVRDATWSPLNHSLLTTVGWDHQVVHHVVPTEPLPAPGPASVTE
Test: PRMT5 Biochemical Assay (PRMT5/MEP50 enzyme assay on peptide substrate, 3H-SAM Flashplate)
Conditions: PRMT5/MEP50 4 nM, 3H-SAM 75 nM, peptide 40 nM, 30 min preincubation at 25 degrees Celsius
Exercise: for every item that follows, state its recorded IC50.

Below, 6 compounds whose answers are already recorded.
{"compound": "Cn1cc2c(n1)CCN(CC(O)COc1cccc(CNC3CCCC3)c1)C2 (centres unmarked)", "study_system": "PRMT5/MEP50 (Homo sapiens)", "outcome_measure": "IC50", "result_value": "> 50 µM"}
{"compound": "CC(=O)N1CCC(Nc2cc(C(=O)NC[C@H](O)CN3CCc4c(ncn4C)C3)ncn2)CC1", "study_system": "PRMT5/MEP50 (Homo sapiens)", "outcome_measure": "IC50", "result_value": "> 10 µM"}
{"compound": "O=C(NC[C@H](O)CN1CCc2[nH]cnc2C1)c1cc(NC2COC2)ncn1", "study_system": "PRMT5/MEP50 (Homo sapiens)", "outcome_measure": "IC50", "result_value": "> 10 µM"}
{"compound": "CC(=O)N1CCC(Nc2cc(C(=O)NC[C@H](O)CN3CCc4cn(C)nc4C3)ccn2)CC1", "study_system": "PRMT5/MEP50 (Homo sapiens)", "outcome_measure": "IC50", "result_value": "0.101 to 1 µM"}
{"compound": "CC(=O)N1CCC(Nc2cc(C(=O)NC[C@H](O)CN3CCc4c(ncn4C)C3)ccn2)CC1", "study_system": "PRMT5/MEP50 (Homo sapiens)", "outcome_measure": "IC50", "result_value": "> 10 µM"}
{"compound": "CC(=O)N1CCC(Nc2cc(C(=O)NC[C@H](O)CN3CCc4ncsc4C3)ccn2)CC1", "study_system": "PRMT5/MEP50 (Homo sapiens)", "outcome_measure": "IC50", "result_value": "1 to 10 µM"}

Hi, could you look up IC50 for each item in my list?
1. Cc1nc2c([nH]1)CCN(C[C@@H](O)CNC(=O)c1cc(NC3COC3)ncn1)C2
2. Cn1cnc2c1CN(C[C@H](O)COc1cccc(CNC3CCCC3)c1)CC2
3. CC(=O)N1CCC(Nc2cc(C(=O)NC[C@H](O)CN3CCc4ncccc4C3)ccn2)CC1
4. CC(=O)N1CCC(Nc2cc(C(=O)NC[C@H](O)CN3CCc4nc(N)sc4C3)ncn2)CC1
5. CC(=O)N1CC(Nc2cc(C(=O)NC[C@H](O)CN3CCc4cccnc4C3)ncn2)C1

### Response
["> 10 µM", "> 50 µM", "0.101 to 1 µM", "1 to 10 µM", "0.101 to 1 µM"]
